tgt: T1, APBA3_2, O96018
T1 sequence (O96018 480-570, limits assumed, looked up): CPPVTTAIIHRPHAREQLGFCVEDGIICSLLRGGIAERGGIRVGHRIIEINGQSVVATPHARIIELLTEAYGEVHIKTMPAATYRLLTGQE
assay-details: holdup assay
Parameters: key: below the threshold = too weak to quantify, mostly under pKd 3.1 to 4
test-context: plain residues with an end cap or a label only (N-terminal biotin on a linker: ttds)
observation-type: pKd

INSERT INTO assay_data (binder, observation_type, measured_result) VALUES
  ('QRQARSETLV [HPV59-E6, Q81964]', 'pKd', 'below the threshold'),
  ('SKPTRRETEV [HPV35-E6, P27228]', 'pKd', 'below the threshold'),
  ('RPLPRKVSQL [DOCK4, Q8N1I0]', 'pKd', 'below the threshold'),
  ('RLPKIKETTV [FRMPD4, Q14CM0]', 'pKd', 4.47);
